Please respond with reported melting point for every item in the list.
Counter-ions that a name gives are not always drawn.

Inquiry: Dear colleague, please send me the reported melting point for CCOCc1nc2c(N)nc3cc(-c4ccc(C(=O)N5CCOCC5)cc4)ccc3c2n1CCCOC when you can.
Reply text: 163 to 165 °C

Inquiry: Give the measured melting point for CCCCCCCCCCCCCCCC(=O)N1CCC(Cn2c(COCC)nc3c(N)nc4cc(-c5cccnc5)ccc4c32)CC1 (hydrate or solvate)
Reply text: 72 to 75 °C

Inquiry: Please report melting point for the following compound: CC(=O)c1cccc(-c2ccc3nc(N)c4ncn(CC(C)C)c4c3c2)c1
Reply text: 217 to 218 °C

Inquiry: Specify melting point for CCOCc1nc2c(N)nc3cc(-c4cccc(C(=O)N5CCCC5)c4)ccc3c2n1CC(C)(C)O and stop.
Reply text: 216.5 to 217.5 °C

Inquiry: Please give measured melting point of the following entry: CCOCc1nc2c(N)nc3cc(-c4cccnc4)ccc3c2n1CCNS(C)(=O)=O
Reply text: 233 to 235 °C

Inquiry: Provide melting point value for the following compound: CCCc1nc2c(N)nc3cc(/C=C/c4ccc(C)s4)ccc3c2n1CC(C)C
Reply text: 182 to 185 °C

Inquiry: Specify reported melting point for the compound shown: COCc1nc2c(N)nc3cc(-c4cnc(OC)nc4)ccc3c2n1CC(C)(C)O
Reply text: 241 to 242 °C

Inquiry: Tell me its melting point given CCOCc1nc2c(N)nc3cc(-c4cccnc4)ccc3c2n1CCCCN1CCCS1(=O)=O as the entry.
Reply text: 171 to 173 °C

Inquiry: Provide measured melting point value, entry: CCOCc1nc2c(N)nc3cc(-c4ccccc4)ccc3c2n1CCCCS(=O)(=O)N(C)C
Reply text: 207 to 208 °C

Inquiry: Please list melting point recorded for the compound CCCCc1nc2c(N)nc3cc(-c4ccsc4)ccc3c2n1CC(C)C
Reply text: 229 to 230 °C

Inquiry: Fill in reported melting point for this entry: CCCC(=O)NCCCCn1c(COCC)nc2c(N)nc3cc(-c4cccnc4)ccc3c21
Reply text: 150 to 152 °C

Inquiry: Give melting point for the following compound: CCOCc1nc2c(N)nc3cc(-c4cccnc4)ccc3c2n1CC1CCN(C(=O)C2CCCO2)CC1 (stereo not drawn)
Reply text: 191 to 192 °C

Inquiry: Supply measured melting point of CCOCc1nc2c(N)nc3cc(-c4cccnc4)ccc3c2n1CC1CCCCN1 (stereo not drawn) (as salt: hydrochloride) [Example 491, trihydrochloride] in your reply.
Reply text: > 250 °C

Inquiry: Answer with the recorded melting point for the compound listed here: CCOCc1nc2c(N)nc3cc(-c4cccnc4)ccc3c2n1CC(C)C
Reply text: 179.5 to 181.5 °C

Inquiry: Report measured melting point; entry is CCOCc1nc2c(N)nc3cc(-c4ccco4)ccc3c2n1CCCOC
Reply text: 144 to 145 °C

Inquiry: Note melting point for the compound shown: CCCc1nc2c(N)nc3cc(-c4cccnc4)ccc3c2n1CC1CCN(S(C)(=O)=O)CC1 (as salt: HCl) (hydrate or solvate)
Reply text: > 250 °C

Inquiry: Give recorded melting point. COCCc1nc2c(N)nc3cc(-c4cccnc4)ccc3c2n1CCCN1CCCC1=O
Reply text: 218 to 221 °C

Inquiry: # return recorded melting point for input CCOCc1nc2c(N)nc3cc(-c4cccnc4)ccc3c2n1CCCCNC(=O)NC(C)C
Reply text: 192 to 194 °C

Inquiry: Annotate the compound CCOCc1nc2c(N)nc3ccc(-c4cccnc4)cc3c2n1CC(C)(C)O with its measured melting point.
Reply text: 222 to 223 °C

Inquiry: Indicate the recorded melting point value for this compound: CCOCc1nc2c(N)nc3cc(-c4cccnc4)ccc3c2n1CCCCCS(=O)(=O)N(C)C
Reply text: 159 to 160 °C

Inquiry: Identify measured melting point corresponding to COCCc1nc2c(N)nc3ccc(-c4ccccc4)cc3c2n1CCCN1CCCC1=O (hydrate or solvate)
Reply text: 207 to 210 °C

Inquiry: Provide measured melting point value, entry: CCOCc1nc2c(N)nc3cc(-c4cccnc4)ccc3c2n1CC1CCNCC1 (as salt: hydrochloride) [Example 177, trihydrochloride]
Reply text: > 250 °C

Inquiry: Supply measured melting point of CCCc1nc2c(N)nc3cc(-c4cccnc4)ccc3c2n1CCCCNC(=O)NC(C)C (hydrate or solvate) in your reply.
Reply text: 173 to 175 °C

Inquiry: Give melting point for the following compound: CCOCc1nc2c(N)nc3cc(-c4ccsc4)ccc3c2n1CC(C)(C)O
Reply text: 204 to 205 °C

Inquiry: Input CCc1ccc(-c2ccc3nc(N)c4ncn(CC(C)C)c4c3c2)cc1 , output reported melting point.
Reply text: 238 to 240 °C

Inquiry: Dear colleague, please send me the reported melting point for CCCCc1nc2c(N)nc3cc(-c4cccnc4)ccc3c2n1CCNC(=O)NC(C)C when you can.
Reply text: 240 to 241 °C

Inquiry: Give the value of melting point reported for the following: CCOCc1nc2c(N)nc3cc(-c4cccnc4)ccc3c2n1C[C@@H]1COC(C)(C)O1
Reply text: 155 to 156 °C

Inquiry: Return the recorded melting point value; entry: CCCc1nc2c(N)nc3cc(-c4ccccc4)ccc3c2n1CC(C)(C)NS(C)(=O)=O
Reply text: 135 to 141 °C

Inquiry: Consider the compound CC(C)Cn1cnc2c(N)nc3ccc(-n4cccc4)cc3c21 and give its recorded melting point.
Reply text: 227.5 to 231.5 °C

Inquiry: Please indicate melting point recorded for CCCc1nc2c(N)nc3cc(/C=C/c4ccc5sc(C)nc5c4)ccc3c2n1CC(C)C
Reply text: 210 to 212 °C

Inquiry: State, in one line, measured melting point of CCOCc1nc2c(N)nc3cc(-c4cccnc4)ccc3c2n1CC(C)(C)O
Reply text: 197 to 199 °C

Inquiry: Name the recorded melting point of the compound listed here: CC(C)Cn1cnc2c(N)nc3cc(-c4cncc(CO)c4)ccc3c21
Reply text: 210 to 211 °C

Inquiry: Please list melting point recorded for the compound CCOCc1nc2c(N)nc3cc(-n4ccnc4)ccc3c2n1CCCOC
Reply text: 167.5 to 169 °C
